Taken from ChEMBL document CHEMBL3991601.

# SUBJECT OF TEST: Serine/threonine-protein kinase 4 (Homo sapiens)
# Sequence (Q13043 whole entry): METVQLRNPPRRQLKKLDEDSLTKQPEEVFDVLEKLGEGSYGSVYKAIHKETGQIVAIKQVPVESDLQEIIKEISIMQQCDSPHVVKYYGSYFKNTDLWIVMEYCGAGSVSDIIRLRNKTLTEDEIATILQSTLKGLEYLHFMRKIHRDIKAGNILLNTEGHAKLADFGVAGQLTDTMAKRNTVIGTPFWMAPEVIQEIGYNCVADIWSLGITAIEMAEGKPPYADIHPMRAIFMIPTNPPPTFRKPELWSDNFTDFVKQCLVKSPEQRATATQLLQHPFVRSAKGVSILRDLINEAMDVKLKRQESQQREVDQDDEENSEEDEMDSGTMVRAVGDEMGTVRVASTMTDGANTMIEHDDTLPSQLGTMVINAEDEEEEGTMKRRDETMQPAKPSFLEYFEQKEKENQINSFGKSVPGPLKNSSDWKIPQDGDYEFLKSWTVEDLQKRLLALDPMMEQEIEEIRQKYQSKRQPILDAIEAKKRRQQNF
Active and inactive are the calls of the source.
Outcome codes: y for active, n for inactive

{"COMPOUND": "C=CC(=O)N1CCC(Oc2cc3c(Nc4ccc(Cl)c(Cl)c4F)ncnc3cc2OC)CC1", "CATEGORY": "n"}
{"COMPOUND": "Cn1cc(-c2ccc(F)c(C(F)(F)F)c2)nc1C1CCN(c2ncnc3[nH]ncc23)CC1", "CATEGORY": "n"}
{"COMPOUND": "COc1cc2nccc(Oc3ccc(NC(=O)NC4CC4)c(Cl)c3)c2cc1C(N)=O", "CATEGORY": "n"}
{"COMPOUND": "COCCNCc1ccc(-c2cc3nccc(Oc4ccc(NC(=S)NC(=O)Cc5ccc(F)cc5)cc4F)c3s2)nc1", "CATEGORY": "n"}
{"COMPOUND": "O=C(Nc1ccc(-c2ccnc(Nc3ccc(N4CCOCC4)cc3)n2)cc1)C1CCCN1 (stereo not given)", "CATEGORY": "n"}
{"COMPOUND": "O=C(Nc1cccc(Cl)c1)Nc1ncc(CCNc2ncnc3ccsc23)s1", "CATEGORY": "n"}
{"COMPOUND": "O=C(O)[C@]1(Cc2cccc(Nc3nccs3)n2)CC[C@@H](Oc2cccc(Cl)c2F)CC1", "CATEGORY": "y"}
{"COMPOUND": "Cc1ccc(-n2nc(C(C)(C)C)cc2NC(=O)NCc2cc(F)ccc2Oc2ccc3c(cnn3CCO)c2)cc1", "CATEGORY": "n"}
{"COMPOUND": "COc1cc(N2CCC(N3CCN(C)CC3)CC2)ccc1Nc1ncnc(Nc2ccccc2S(=O)(=O)C(C)C)n1", "CATEGORY": "n"}
{"COMPOUND": "CNC(=O)c1ccc(-c2cnc3ncc(Cc4ccc5ncccc5c4)n3n2)cc1F", "CATEGORY": "n"}
{"COMPOUND": "O=C1NC(=O)/C(=C/c2ccc3nccc(-c4ccncc4)c3c2)S1", "CATEGORY": "n"}
{"COMPOUND": "CNC(=O)c1cc(Oc2ccc(NC(=O)Nc3ccc(Cl)c(C(F)(F)F)c3)c(F)c2)ccn1", "CATEGORY": "n"}
{"COMPOUND": "CO[C@H]1C[C@@H]2CC[C@@H](C)[C@@](O)(O2)C(=O)C(=O)N2CCCC[C@H]2C(=O)O[C@H]([C@H](C)C[C@@H]2CC[C@@H](OCCO)[C@H](OC)C2)CC(=O)[C@H](C)/C=C(\\C)[C@@H](O)[C@@H](OC)C(=O)[C@H](C)C[C@H](C)/C=C/C=C/C=C/1C", "CATEGORY": "n"}
{"COMPOUND": "Cc1cc([C@@H](C)Nc2ccccc2C(=O)O)c2nc(N3CCOCC3)cc(=O)n2c1", "CATEGORY": "n"}
{"COMPOUND": "CN(C)C(=O)c1cc2cnc(Nc3ccc(N4CCNCC4)cn3)nc2n1C1CCCC1", "CATEGORY": "n"}
{"COMPOUND": "C[C@@H](Nc1cc(F)cc(F)c1)c1cc(C(=O)N(C)C)cc2c(=O)cc(N3CCOCC3)oc12", "CATEGORY": "n"}
{"COMPOUND": "Cc1ccc(NC(=O)c2ccc(CN3CC[C@H](N(C)C)C3)c(C(F)(F)F)c2)cc1Nc1nccc(-c2cncnc2)n1", "CATEGORY": "n"}
{"COMPOUND": "C[C@@H]1CN(Cc2ccc(F)cc2)[C@@H](C)CN1C(=O)c1cc2c(C(=O)C(=O)N(C)C)cn(C)c2cc1Cl", "CATEGORY": "n"}
{"COMPOUND": "Cn1ncc(Cl)c1-c1cc(C(=O)N[C@H](CN)Cc2cccc(F)c2)sc1Cl", "CATEGORY": "n"}
{"COMPOUND": "CNC(=O)CN1CCC(Oc2cc3c(Nc4cccc(Cl)c4F)ncnc3cc2OC)CC1", "CATEGORY": "n"}
{"COMPOUND": "COc1cc(CCc2cc(NC(=O)c3ccc(N4C[C@@H](C)N[C@@H](C)C4)cc3)n[nH]2)cc(OC)c1", "CATEGORY": "n"}
{"COMPOUND": "CC(C)Nc1cc(-c2c[nH]c(C(=O)N[C@H](CO)c3cccc(Cl)c3)c2)c(Cl)cn1", "CATEGORY": "n"}
{"COMPOUND": "OCCn1cc(-c2cnc3nnn(Cc4ccc5ncccc5c4)c3n2)cn1", "CATEGORY": "n"}
{"COMPOUND": "Cc1cc2c(F)c(Oc3ncnn4cc(OC[C@@H](C)OC(=O)[C@H](C)N)c(C)c34)ccc2[nH]1 [BRIVANIB ALANINATE]", "CATEGORY": "n"}
{"COMPOUND": "Cc1c(F)cc(C(=O)NC2CC2)cc1-c1ccc(C(=O)NCC(C)(C)C)cn1", "CATEGORY": "n"}
{"COMPOUND": "COC(=O)[C@@]1(O)C[C@H]2O[C@]1(C)n1c3ccccc3c3c4c(c5c6ccccc6n2c5c31)C(=O)NC4 [K-252A]", "CATEGORY": "y"}
{"COMPOUND": "CNC(=O)c1ccc(C)c(-n2c(C)cc(OCc3ccc(F)cc3F)c(Br)c2=O)c1", "CATEGORY": "n"}
{"COMPOUND": "COc1cc(OC)c(/C=C/S(=O)(=O)Cc2ccc(OC)c(NCC(=O)O)c2)c(OC)c1", "CATEGORY": "n"}
{"COMPOUND": "CN1CC[C@@H](c2c(O)cc(O)c3c(=O)cc(-c4ccccc4Cl)oc23)[C@@H]1CO", "CATEGORY": "n"}
{"COMPOUND": "CN1CCC(COc2cnc(-c3cccc(Cn4nc(-c5cccc(C#N)c5)ccc4=O)c3)nc2)CC1", "CATEGORY": "n"}
